Measured growth inhibition, listed per entry for reference.
ASSAY_DETAILS: NCI Yeast Anticancer Drug Screen. Data for the CLN2oe strain (AID 163);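 further: 0% = growth of vehicle-only control cultures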
CONDITION_DESCRIPTION: S. cerevisiae CLN2oe strain, at 11.0 µM, hits give high values
About 79,000 compounds went through this panel and 15% of them were active in at least one assay; those are over-represented in the sample as a whole. Calls of active or inactive are those of the source. No stated cut-off is given here; in the data, active means growth inhibition above about 70%; inactive means the rest.

COMPOUND: O=C1C2C=CC1C1C(=O)OC(=O)C21 (stereo not drawn)
growth inhibition: -24% (inactive)
//
COMPOUND: FC(F)(F)c1cc(NC(=S)N2c3ccccc3-n3cccc3C2c2cccnc2)cc(C(F)(F)F)c1 (stereo not drawn)
growth inhibition: 2% (inactive)
//
COMPOUND: CCOC(=O)c1cnc2c(C(F)(F)F)cccc2c1N=[N+]=[N-]
growth inhibition: -2% (inactive)
//
COMPOUND: CCC(C(=O)O)C1=C(c2ccccc2)CCc2ccccc21 (stereo not drawn)
growth inhibition: 96% (active)
//
COMPOUND: Cc1ccc(CSC(N)=Nc2ccccc2)cc1C
growth inhibition: -1% (inactive)
//
COMPOUND: Cc1ccc(-n2cc(-c3ccc(Cl)cc3)c(C#N)c2N)cc1
growth inhibition: -12% (inactive)
//
COMPOUND: N#C/C(=C\c1cccc(OCc2ccccc2)c1)c1ccc([N+](=O)[O-])cc1
growth inhibition: -28% (inactive)
//
COMPOUND: OC1CSCCCSCCSCCCSC1
growth inhibition: 3% (inactive)
//
COMPOUND: CC(=O)Nc1ccc2c(c1)C(=Nc1ccc(C(=O)O)cc1)c1ccccc1-2
growth inhibition: 3% (inactive)
//
COMPOUND: CCCCOC(=O)N[C@H]1CCc2cc(OC)c(OC)c(OC)c2-c2ccc(SC)c(=O)cc21
growth inhibition: -1% (inactive)
//
COMPOUND: CCOc1ccc2c(c1)c(CC(=O)O)cn2C
growth inhibition: 6% (inactive)
//
COMPOUND: Cc1cc(S(=O)(=O)/N=C(/NN)NNc2cccc(C(F)(F)F)n2)c(S)cc1Cl
growth inhibition: -2% (inactive)
//
COMPOUND: NC(=NCc1ccccc1)N/N=C\c1ccnc2ccccc12
growth inhibition: 1% (inactive)
//
COMPOUND: CC[n+]1ccc2c(C)c3[nH]c4ccc(O)cc4c3c(C)c2c1
growth inhibition: 36% (inactive)
//
COMPOUND: CC(C)[N+]([O-])(CCCNc1c2ccccc2nc2cccc([N+](=O)[O-])c12)C(C)C
growth inhibition: 42% (inactive)
//
COMPOUND: c1ccc2c(c1)NC(NC1Nc3ccccc3N1)N2
growth inhibition: -9% (inactive)
//
COMPOUND: O=[n+]1c2ccc(Cl)cc2n([O-])c2ccc(Cl)cc21
growth inhibition: 0% (inactive)
//
COMPOUND: COc1ccc(NC(=S)N/N=C(\c2ccccc2)c2ccccn2)cc1
growth inhibition: -4% (inactive)
//
COMPOUND: CCC[CH2][Ge]([CH2]CCC)([CH2]CCC)[O]C(=O)C(OC)c1ccccc1 (stereo not drawn)
growth inhibition: 6% (inactive)
//
COMPOUND: CC(=O)Cc1ccc[cH-]1.[Fe+2].c1cc[cH-]c1
growth inhibition: 17% (inactive)
//
COMPOUND: CC[C@@]1(O)C(=O)OCc2c1cc1n(c2=O)Cc2cc3c(N)cccc3nc2-1
growth inhibition: 25% (inactive)
//
COMPOUND: CC(=O)Nc1ccc(SC(C)=O)cc1
growth inhibition: 12% (inactive)
//
COMPOUND: Cn1c(=O)c(-c2ccccc2)c(N=[N+]=[N-])c2ccccc21
growth inhibition: 13% (inactive)

====

ASSAY_DETAILS: NCI Yeast Anticancer Drug Screen. Data for the rad52 strain (AID 147);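 further: 0% = growth of vehicle-treated control cultures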
CONDITION_DESCRIPTION: S. cerevisiae rad52 mutant growth inhibition; at 33.0 µM; hits give high values
The panel holds about 79,000 compounds, 15% with a hit somewhere; the sample as a whole holds those more often.
Grouping key: growth inhibition. Bins: category 1 = under 20%, category 2 = from 20% up to 70%, category 3 = 70% and over

COMPOUND: Oc1cccc2c(Cl)ccnc12
CLASSIFICATION: category 3
--
COMPOUND: Cc1c(C2=C(Br)C(=O)N(C)C2=O)c(=O)n(C)c(=O)n1C
CLASSIFICATION: category 2
--
COMPOUND: Nc1ccn(C2OC(CO)C3[O][Sn]([c]4ccccc4)([c]4ccccc4)[O]C32)c(=O)n1 (configuration not stated)
CLASSIFICATION: category 2
--
COMPOUND: Cc1nn(-c2cc(Cl)ccc2[N+](=O)[O-])c(C)c1Cl
CLASSIFICATION: category 1
--
COMPOUND: O=[N+]([O-])CC(SCc1ccccc1)c1ccc2c(c1)OCO2 (configuration not stated)
CLASSIFICATION: category 3
--
COMPOUND: Oc1ccc(NCn2c(=S)sc3ccccc32)cc1
CLASSIFICATION: category 2
--
COMPOUND: O=[N+]([O-])c1cccc2nc3ccccc3c(NCCCN3CCOCC3)c12
CLASSIFICATION: category 3
--
COMPOUND: COc1ccc(NC(=S)N/N=C(\c2ccccc2)c2ccccn2)cc1
CLASSIFICATION: category 2
--
COMPOUND: Cc1ccc(-n2cc(-c3ccc(Cl)cc3)c(C#N)c2N)cc1
CLASSIFICATION: category 1
--
COMPOUND: O=C(OCCN1CCCCCC1)C(c1ccsc1)C1CCCCC1 (configuration not stated)
CLASSIFICATION: category 2
--
COMPOUND: CC(C)(Br)C(=O)/C=C/c1ccc(Cl)c(Cl)c1
CLASSIFICATION: category 1

====

ASSAY_DETAILS: NCI Yeast Anticancer Drug Screen. Data for the wt1 strain (AID 149);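 further: 0% = growth of vehicle-treated wt1 cultures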
CONDITION_DESCRIPTION: S. cerevisiae wt1 strain (SPY 50644) growth inhibition; at 11.0 µM; hits give high values
Description: Growth inhibition of yeast strains with defined genetic alterations is measured as a screen for potential anti-cancer activity. Selected strains with alterations in DNA damage repair or cell cycle control were exposed to compounds and growth inhibition was measured relative to vehicle treated controls. The strain used in this assay is wt1
This is part of a sample that, as a whole, favours compounds with a hit. Of some 79,000 tested, about 15% had one in any assay.
Measured growth inhibition, listed per entry for reference.

COMPOUND: CCCS(=O)(=O)Nc1ccc(Nc2c3ccccc3nc3ccccc23)c(OC)c1
growth inhibition / %: -64
//
COMPOUND: O=Nc1cccnc1N=O
growth inhibition / %: 37
//
COMPOUND: CC(C)(Br)C(=O)/C=C/c1ccc(Cl)c(Cl)c1
growth inhibition / %: -3
//
COMPOUND: C=CCC1=C(C)C(OC(=O)/C=C/c2ccccc2)CC1=O (configuration not stated)
growth inhibition / %: -5
//
COMPOUND: CCCCc1cc(O)ccc1O
growth inhibition / %: 0
//
COMPOUND: O=Cc1cccc2ccc3ccccc3c12
growth inhibition / %: -8
//
COMPOUND: COC(=O)CCNc1c2ccccc2nc2cccc([N+](=O)[O-])c12
growth inhibition / %: 96
//
COMPOUND: OCC(Cn1cncn1)(c1ccc(F)cc1F)n1cncn1 (configuration not stated)
growth inhibition / %: 45
//
COMPOUND: CN(C)C[C@H]1CC[C@@H](CN(C)C)C1=O
growth inhibition / %: 25
//
COMPOUND: Cc1ccc(NC(=O)/C(Cl)=C(\Cl)C(=O)O)cc1C
growth inhibition / %: 2
//
COMPOUND: CCCCN(CCCC)CCSc1ccc(Cl)cc1
growth inhibition / %: 12
//
COMPOUND: COc1ccc(Br)c(C(=O)Sc2nnnn2-c2cccc(Cl)c2)c1
growth inhibition / %: 22
//
COMPOUND: Cc1ccc2ccc3cccc4ccc1c2c34
growth inhibition / %: -3
//
COMPOUND: S=C(N/N=C/c1ccccn1)Nc1ccc(Cl)cc1
growth inhibition / %: -5
//
COMPOUND: CC(/C=C/c1ccc(Cl)cc1)=N\NC(=S)NCC(C)C
growth inhibition / %: 1
//
COMPOUND: O=[N+]([O-])c1cccc2nccc(NCCCO)c12
growth inhibition / %: 5
//
COMPOUND: C(CCSC1=NCCN1)CSC1=NCCN1 (tested in a mixture with another compound)
growth inhibition / %: 41
//
COMPOUND: C/C(=N\NC(=S)SCc1ccccc1)c1ccccn1
growth inhibition / %: 58
//
COMPOUND: CN(C)c1ccc(C(C#N)=C(C#N)C#N)cc1
growth inhibition / %: -6
//
COMPOUND: O=C(c1cc(Br)ccc1O)c1cc(Br)ccc1O
growth inhibition / %: 99
//
COMPOUND: Clc1ccccc1C1OC1c1ccccc1Cl (configuration not stated)
growth inhibition / %: -61
//
COMPOUND: CC[n+]1ccc2c(C)c3[nH]c4ccc(O)cc4c3c(C)c2c1
growth inhibition / %: 3
//
COMPOUND: COC1C=COC2(C)Oc3c(C)c(O)c4c(c3C2=O)/C(=N/C2CCC(O)OC2C)C=C(NC(=O)/C(C)=C\C(=O)C2CC2C(O)C(C)C(O)C(C)C(OC(C)=O)C1C)C4=O (configuration not stated)
growth inhibition / %: 1
//
COMPOUND: CC(Br)C(=O)c1ccc2cc(Br)c3ccccc3c2c1 (configuration not stated)
growth inhibition / %: 1
//
COMPOUND: O=C1C(Nc2ccccc2)=C(Oc2ccccc2)C(=O)c2ccccc21
growth inhibition / %: 7
//
COMPOUND: COC(=O)c1cc(-c2ccc(C)cc2)[nH]c(=O)c1C#N
growth inhibition / %: -1
//
COMPOUND: BrCc1cccc2ccc3cccc(CBr)c3c12
growth inhibition / %: -4
//
COMPOUND: COc1ccc(/C=C/C(=O)C(C)(C)Br)cc1
growth inhibition / %: 15
//
COMPOUND: Cc1cc(O)cc(O)c1N=Nc1ccc([N+](=O)[O-])cc1
growth inhibition / %: 21
//
COMPOUND: O=C1NC(=O)C2C3C=CC(C3)C12 (configuration not stated)
growth inhibition / %: -7
//
COMPOUND: CC(CC(C)(C)[N+](C)(C)C)[N+](C)(C)C (configuration not stated)
growth inhibition / %: -3
//
COMPOUND: CCCCCCCCC/C=C/C=C/C(=O)NCC(=O)NC1C(O)C(O)C(Nc2ncnc3nc[nH]c23)OC1C(O)CO (configuration not stated)
growth inhibition / %: -27
//
COMPOUND: NC(=S)N/N=C\c1nccc2ccccc12
growth inhibition / %: 16
//
COMPOUND: CC1OCC2OC(C)OC(C3C4=C(CC(C)(C)CC4=O)OC4=C3C(=O)CC(C)(C)C4)C2O1 (configuration not stated)
growth inhibition / %: 6
//
COMPOUND: Cc1ccc(CSC(N)=Nc2ccccc2)cc1C
growth inhibition / %: 0
//
COMPOUND: CN(C)Cc1cc(N=Nc2ccc(Cl)cc2)cc(CN(C)C)c1O
growth inhibition / %: 8
//
COMPOUND: CCC/C(Cl)=N\OC(=O)Nc1ccc(Br)cc1
growth inhibition / %: 58
//
COMPOUND: O=C(O)C1CCCCC1c1c2ccc(=O)c(O)c-2oc2c(O)c(O)ccc12 (configuration not stated)
growth inhibition / %: -3
//
COMPOUND: CCCCOC(=O)N[C@H]1CCc2cc(OC)c(OC)c(OC)c2-c2ccc(SC)c(=O)cc21
growth inhibition / %: -4
//
COMPOUND: CC(C)NC(=O)OCc1c(COC(=O)NC(C)C)c(-c2ccc(Cl)c(Cl)c2)n2c1CCC2
growth inhibition / %: -45
//
COMPOUND: Cc1ccc(S(=O)(=O)Oc2cc(Cl)c(Cl)cc2Cl)cc1
growth inhibition / %: -7
//
COMPOUND: COc1cc(/C=C2\CCc3ccccc3C2=O)cc(OC)c1OC
growth inhibition / %: -2
//
COMPOUND: CCCCCCCCCC/C=C\C(=O)O
growth inhibition / %: -35
//
COMPOUND: O=[N+]([O-])c1ccc2nc3ccccc3cc2c1
growth inhibition / %: -7
//
COMPOUND: O=C(NC(Nc1ccc(F)c(Cl)c1)(C(F)(F)F)C(F)(F)F)C(C(F)(F)F)C(F)(F)F
growth inhibition / %: 48
//
COMPOUND: CC(=O)Oc1cc(-c2cc(OC(C)=O)c(OC(C)=O)c3ccccc23)c2ccccc2c1OC(C)=O
growth inhibition / %: 10
//
COMPOUND: NC(N)=N/N=C\c1c2ccccc2cc2ccccc12
growth inhibition / %: -29

Provenance of the data: PubChem BioAssay (NCI)
